Just for reference, patent US20250313563A1 is where these values come from.

target: UniProtKB P49840; assay: GSK3α TR-FRET kinase assay; type: biochemical; settings: 1 nM GSK3α, 4 μM ATP, 30 minute preincubation, Table 16; read-out: GSK3-A TR-FRET BIOCHEMICAL (TR-FRET)
Sequence (P49840 whole entry): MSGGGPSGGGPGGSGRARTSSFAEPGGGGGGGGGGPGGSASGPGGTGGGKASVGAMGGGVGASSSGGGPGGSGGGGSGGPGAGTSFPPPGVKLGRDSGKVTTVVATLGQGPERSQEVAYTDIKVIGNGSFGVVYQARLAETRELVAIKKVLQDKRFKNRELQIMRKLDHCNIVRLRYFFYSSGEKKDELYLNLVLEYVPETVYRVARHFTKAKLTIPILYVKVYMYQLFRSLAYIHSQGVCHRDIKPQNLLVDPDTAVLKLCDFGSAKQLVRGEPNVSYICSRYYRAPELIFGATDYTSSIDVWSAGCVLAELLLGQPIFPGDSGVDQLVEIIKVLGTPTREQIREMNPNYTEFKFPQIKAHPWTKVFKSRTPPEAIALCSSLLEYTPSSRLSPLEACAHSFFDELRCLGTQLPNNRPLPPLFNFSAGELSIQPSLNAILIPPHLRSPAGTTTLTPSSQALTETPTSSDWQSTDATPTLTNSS
pIC50: −log10 of the molar value.
Consider the following compounds and their measured pIC50 readings.
property_label: pIC50

[
  {
    "compound": "CCCn1nccc1-c1cccc(C2(CC)C3=C(CC(C)(C)CC3=O)Nc3n[nH]cc32)c1 (stereo not drawn) [Compound 946094]",
    "result": "6.00 to 7.00"
  },
  {
    "compound": "CC1(C)CC(=O)C2=C(C1)Nc1n[nH]cc1C21CCN(S(=O)(=O)c2cnc3cccnn23)CC1 [Compound 948120]",
    "result": "≥ 7.00"
  },
  {
    "compound": "CC1(C)CC(=O)C2=C(C1)Nc1n[nH]cc1C21CCN(S(=O)(=O)c2cnn(CCF)c2)CC1 [Compound 947903]",
    "result": "≥ 7.00"
  },
  {
    "compound": "COCc1ccc(S(=O)(=O)N2CCC3(CC2)C2=C(CC(C)(C)CC2=O)Nc2n[nH]cc23)cc1 [Compound 947250]",
    "result": "≥ 7.00"
  },
  {
    "compound": "CCC1(c2cccc(Oc3ncccn3)c2)C2=C(CC(C)(C)CC2=O)Nc2n[nH]cc21 (stereo not drawn) [Compound 947818]",
    "result": "6.00 to 7.00"
  },
  {
    "compound": "CC1(C)CC(=O)C2=C(C1)Nc1n[nH]cc1C21CCN(S(=O)(=O)c2cccc(C#N)c2)CC1 [Compound 947254]",
    "result": "≥ 7.00"
  },
  {
    "compound": "CC[C@]1(c2cccc(-c3cn(C)nc3C)c2)C2=C(CC(C)(C)CC2=O)Nc2n[nH]cc21 [Compound 945546]",
    "result": "≥ 7.00"
  },
  {
    "compound": "C[C@H]1CCC[C@@]2(C1)C1=C(CC(C)(C)CC1=O)Nc1n[nH]cc12 [Compound 893319]",
    "result": "6.00 to 7.00"
  },
  {
    "compound": "CC1(C)CC(=O)C2=C(C1)Nc1n[nH]cc1C21CCC(n2cnnc2)CC1 (stereo not drawn) [Compound 943894]",
    "result": "≥ 7.00"
  },
  {
    "compound": "Cn1cc(S(=O)(=O)N2CC[C@]3(C2)C2=C(CC(C)(C)CC2=O)Nc2n[nH]cc23)cn1 [Compound 951725]",
    "result": "≥ 7.00"
  },
  {
    "compound": "Cn1ccc(S(=O)(=O)N2CCCC3(CC2)C2=C(CC(C)(C)CC2=O)Nc2n[nH]cc23)n1 (stereo not drawn) [Compound 917138]",
    "result": "≥ 7.00"
  },
  {
    "compound": "Cn1nccc1S(=O)(=O)N1CC2(C1)C1=C(CC(C)(C)CC1=O)Nc1n[nH]cc12 [Compound 932648]",
    "result": "≥ 7.00"
  },
  {
    "compound": "CC1(C)CC(=O)C2=C(Nc3n[nH]cc3C23CCN(S(=O)(=O)c2cccc(C(F)(F)F)c2)CC3)[C@@H]1F [Compound 951703]",
    "result": "≥ 7.00"
  },
  {
    "compound": "Cn1ccc(S(=O)(=O)N2CCC[C@]3(CC2)C2=C(CC(C)(C)CC2=O)Nc2n[nH]cc23)n1 [Compound 932660]",
    "result": "≥ 7.00"
  },
  {
    "compound": "CC[C@@]1(c2ccccc2)C2=C(CC(C)(C)[C@H](F)C2=O)Nc2n[nH]cc21 [Compound 957405]",
    "result": "6.00 to 7.00"
  },
  {
    "compound": "COc1cccc(S(=O)(=O)N2CCC3(CC2)C2=C(CC(C)(C)CC2=O)Nc2n[nH]cc23)c1 [Compound 943962]",
    "result": "≥ 7.00"
  },
  {
    "compound": "CC1(C)CC(=O)C2=C(C1)Nc1n[nH]cc1C21CCN(S(=O)(=O)c2ccccc2Cl)CC1 [Compound 945655]",
    "result": "≥ 7.00"
  },
  {
    "compound": "C[C@@H]1C[C@]2(CCN1S(=O)(=O)c1ccn(C)n1)C1=C(CC(C)(C)CC1=O)Nc1n[nH]cc12 [Compound 917160]",
    "result": "6.00 to 7.00"
  },
  {
    "compound": "CCC1(c2cccc(-c3c(C)nnn3C)c2)C2=C(CC(C)(C)CC2=O)Nc2n[nH]cc21 (stereo not drawn) [Compound 943996]",
    "result": "≥ 7.00"
  },
  {
    "compound": "CC1(C)CC(=O)C2=C(C1)Nc1n[nH]cc1[C@@]21CCCc2c(-c3ccncc3)cccc21 [Compound 945547]",
    "result": "5.30 to 6.00"
  },
  {
    "compound": "CC(C)c1ccccc1S(=O)(=O)N1CCC2(CC1)C1=C(CC(C)(C)CC1=O)Nc1n[nH]cc12 [Compound 947473]",
    "result": "6.00 to 7.00"
  },
  {
    "compound": "CC1(C)CC(=O)C2=C(C1)Nc1n[nH]cc1[C@@]21CCO[C@H](C(F)(F)F)C1 [Compound 884022]",
    "result": "6.00 to 7.00"
  },
  {
    "compound": "CCC1(c2cccc(S(=O)(=O)C3CC(F)(F)C3)c2)C2=C(CC(C)(C)CC2=O)Nc2n[nH]cc21 (stereo not drawn) [Compound 944019]",
    "result": "≥ 7.00"
  },
  {
    "compound": "CCC1(c2cccc(CS(C)(=O)=O)c2)C2=C(CC(C)(C)CC2=O)Nc2n[nH]cc21 (stereo not drawn) [Compound 945601]",
    "result": "6.00 to 7.00"
  },
  {
    "compound": "CC1(C)CC(=O)C2=C(C1)Nc1n[nH]cc1C21CN(S(=O)(=O)c2ccc(F)cc2)C1 [Compound 917144]",
    "result": "≥ 7.00"
  },
  {
    "compound": "CC1(C)CC(=O)C2=C(C1)Nc1n[nH]cc1C21CCN(S(C)(=O)=O)CC1 [Compound 880776]",
    "result": "≥ 7.00"
  },
  {
    "compound": "Cc1ccc(S(=O)(=O)N2CCC3(CC2)C2=C(CC(C)(C)CC2=O)Nc2n[nH]cc23)cc1Cl [Compound 947241]",
    "result": "≥ 7.00"
  },
  {
    "compound": "CCC1(c2cccc(-c3ccnc(CO)c3)c2)C2=C(CC(C)(C)CC2=O)Nc2n[nH]cc21 (stereo not drawn) [Compound 943540]",
    "result": "≥ 7.00"
  },
  {
    "compound": "O=C1CC2(CCCC2)CC2=C1C1(CCOCC1)c1c[nH]nc1N2 [Compound 893308]",
    "result": "≥ 7.00"
  },
  {
    "compound": "O=C1C[C@@]2(CCOC2)CC2=C1C1(CCOCC1)c1c[nH]nc1N2 [Compound 901475]",
    "result": "6.00 to 7.00"
  }
]
